Data origin, for the record: the supplement of paper PMC9112550

Tested on: Escherichia coli TOP10;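 also: peptides expressed intracellularly from a pBAD plasmid library in pooled LB shake-flask culture, induced with 0.3% L-arabinose, DNA abundance read by NGS, three biological replicates, DESeq2 with apeglm shrinkage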
Measurement Notes: shrunken log2 fold change of peptide-encoding DNA abundance (4.5 h post-induction vs induction); higher = less antimicrobial activity (less host growth inhibition)
Experimental Context: time post-induction: 4.5 h; library: site-saturation at positions 5, 18, 19, 20
Experimental Endpoint: shrunken log2 fold change

| Seq String | Experimental Endpoint | Readout Value |
| --- | --- | --- |
| RRIRMRPPRLPRPRPRPMVKPRP | shrunken log2 fold change | 0.0401 |
| RRIRRRPPRLPRPRPRPHVCPRP | shrunken log2 fold change | 0.0988 |
| RRIRERPPRLPRPRPRPMVNPRP | shrunken log2 fold change | -0.0701 |
| RRIRIRPPRLPRPRPRPMTNPRP | shrunken log2 fold change | -0.108 |
| RRIRIRPPRLPRPRPRPYVTPRP | shrunken log2 fold change | -0.526 |
| RRIRRRPPRLPRPRPRPRSHPRP | shrunken log2 fold change | -0.033 |
| RRIRRRPPRLPRPRPRPYCYPRP | shrunken log2 fold change | -0.101 |
| RRIRLRPPRLPRPRPRPNMQPRP | shrunken log2 fold change | -0.171 |

Return shrunken log2 fold change for the following sequence: `RRIRCRPPRLPRPRPRPDHEPRP`
-0.144

Let me know recorded shrunken log2 fold change for `RRIRMRPPRLPRPRPRPLVCPRP` , thanks.
0.368
